pIC50 values for the molecules below.
- TARGET_DESC: Proton Pump (H^+,K^+-ATPase) (Sus scrofa, UniProt P19156)
- Construct: gastric vesicles were isolated from porcine stomachs
- Sequence (P19156 2-1034 limits assumed): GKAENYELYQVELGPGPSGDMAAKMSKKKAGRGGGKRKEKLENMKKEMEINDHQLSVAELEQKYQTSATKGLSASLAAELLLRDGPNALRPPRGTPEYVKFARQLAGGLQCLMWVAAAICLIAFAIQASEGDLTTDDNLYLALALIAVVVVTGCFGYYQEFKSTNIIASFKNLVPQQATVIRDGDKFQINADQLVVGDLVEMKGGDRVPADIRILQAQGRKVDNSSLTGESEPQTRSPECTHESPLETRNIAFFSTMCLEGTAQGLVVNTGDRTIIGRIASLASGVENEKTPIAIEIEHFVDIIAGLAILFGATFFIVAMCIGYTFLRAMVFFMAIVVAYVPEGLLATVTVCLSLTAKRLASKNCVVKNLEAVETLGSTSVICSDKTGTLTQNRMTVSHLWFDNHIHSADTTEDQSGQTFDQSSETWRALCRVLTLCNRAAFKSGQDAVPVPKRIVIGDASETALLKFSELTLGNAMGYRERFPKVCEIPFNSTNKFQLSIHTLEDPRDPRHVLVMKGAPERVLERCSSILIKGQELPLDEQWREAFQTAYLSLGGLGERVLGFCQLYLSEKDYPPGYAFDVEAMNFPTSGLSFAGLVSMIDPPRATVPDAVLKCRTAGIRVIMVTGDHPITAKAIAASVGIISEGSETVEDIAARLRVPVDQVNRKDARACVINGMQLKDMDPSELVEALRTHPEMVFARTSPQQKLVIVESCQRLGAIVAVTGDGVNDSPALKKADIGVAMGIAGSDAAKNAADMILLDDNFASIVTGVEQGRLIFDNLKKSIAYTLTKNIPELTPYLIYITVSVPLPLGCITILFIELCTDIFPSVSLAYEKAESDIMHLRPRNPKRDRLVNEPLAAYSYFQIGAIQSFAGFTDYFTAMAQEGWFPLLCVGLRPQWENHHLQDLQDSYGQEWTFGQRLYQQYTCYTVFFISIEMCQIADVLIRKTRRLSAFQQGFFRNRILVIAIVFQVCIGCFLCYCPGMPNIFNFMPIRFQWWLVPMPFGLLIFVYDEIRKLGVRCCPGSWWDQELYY
- Sequence (P18434 whole entry partner): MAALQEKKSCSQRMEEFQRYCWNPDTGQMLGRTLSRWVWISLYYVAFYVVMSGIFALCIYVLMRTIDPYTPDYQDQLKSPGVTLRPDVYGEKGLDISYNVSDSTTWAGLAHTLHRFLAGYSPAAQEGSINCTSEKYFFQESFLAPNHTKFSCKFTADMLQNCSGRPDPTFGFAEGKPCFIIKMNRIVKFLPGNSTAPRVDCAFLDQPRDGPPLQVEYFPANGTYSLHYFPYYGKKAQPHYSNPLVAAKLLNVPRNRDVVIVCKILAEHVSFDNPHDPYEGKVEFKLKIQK
- METHOD_SUMMARY: Inhibitory activity on proton pump (H+,K+-ATPase) activity, porcine gastric vesicles, malachite green readout
- CONDITION: porcine gastric vesicles, pH 6.5, 8 mM KCl, 0.2 mM ATP
pIC50: −log10 of the molar value. Counter-ions that a name gives are not always drawn.

Guide cases for pIC50, answers given:
MOLECULE	pIC50
Cc1cccc(C)c1CNc1cc(NC(=O)c2ncco2)cn2c(C)c(C)nc12 [Example 14]	6.30 to 7.00
Cc1cccc(C)c1CNc1cc(NC(=O)CNC(=O)CO)cn2c(C)c(C)nc12 [Example 95]	> 7.30
Cc1cccc(C)c1CNc1cc(NC(=O)C2CCC2)cn2c(C)c(C)nc12 [Example 5]	6.30 to 7.00
Cc1cccc(C)c1CNc1cc(NC(=O)[C@H]2CCN(C(=O)CO)C2)cn2c(C)c(C)nc12 [Example 110, citrate]	6.30 to 7.00
Cc1cccc(C)c1CNc1cc(NC(=O)CNC(=O)C2CC(O)C2)cn2c(C)c(C)nc12 (stereo not drawn) [Example 58]	6.30 to 7.00
Cc1cccc(C)c1CNc1cc(NC(=O)C2CC(F)C2)cn2c(C)c(C)nc12 (stereo not drawn) [Example 17]	6.30 to 7.00
Cc1cccc(C)c1CNc1cc(NC(=O)C(F)F)cn2c(C)c(C)nc12 [Example 9]	< 6.30
CC(=O)OCCNC(=O)Nc1cc(NCc2c(C)cccc2C)c2nc(C)c(C)n2c1 [Example 62, acetate hydrochloride]	6.30 to 7.00
Cc1cccc(C)c1CNc1cc(NC(=O)NC2CC2)cn2c(C)c(C)nc12.Cl [Example 24, hydrochloride]	> 7.30
Cc1cccc(C)c1CNc1cc(NC(=O)[C@@H]2CCNC2)cn2c(C)c(C)nc12 [Example 89, hydrochloride]	7.00 to 7.30

// pIC50 value for CCC(=O)Nc1cc(NCc2c(C)cccc2C)c2nc(C)c(C)n2c1 [Example 13] : 7.00 to 7.30

====

- TARGET_DESC: Proton Pump (H^+,K^+-ATPase) (Sus scrofa)
- Construct: gastric vesicles were isolated from porcine stomachs
- METHOD_SUMMARY: Inhibitory activity on proton pump (H+,K+-ATPase) activity, porcine gastric vesicles, malachite green readout
- CONDITION: porcine gastric vesicles, pH 6.5, 8 mM KCl, 0.2 mM ATP
pIC50: −log10 of the molar value. Where a name gives a salt, the structure may show the parent alone.
RECORDED_METRIC: pIC50

Guide cases for pIC50, answers given:
MOLECULE	pIC50
Cc1cccc(C)c1CNc1cc(NC(=O)N2CCOCC2)cn2c(C)c(C)nc12 [Example 61, citrate]	7.00 to 7.30
Cc1cccc(C)c1CNc1cc(NC(=O)[C@@H](C)O)cn2c(C)c(C)nc12 [Example 97, citrate]	7.00 to 7.30
Cc1cccc(C)c1CNc1cc(N)cn2c(C)c(C)nc12	7.00 to 7.30

# context switch: different molecule, same pIC50
// pIC50 value for Cc1cccc(C)c1CNc1cc(NC(=O)NCCO)cn2c(C)c(C)nc12 [Example 88, citrate] : > 7.30

====

IC50 values for the molecules below.
- TARGET_DESC: Proton Pump (H^+,K^+-ATPase) (Sus scrofa)
- Construct: gastric vesicles were isolated from porcine stomachs
- METHOD_SUMMARY: Inhibitory activity on proton pump (H+,K+-ATPase) activity, porcine gastric vesicles, malachite green readout
- CONDITION: porcine gastric vesicles, pH 6.5, 8 mM KCl, 0.2 mM ATP
Counter-ions that a name gives are not always drawn.

MOLECULE	VALUE_REPORTED
Cc1cccc(C)c1CNc1cc(NC(=O)N2CC(=O)C2)cn2c(C)c(C)nc12 [Example 69, citrate]	< 50 nM
COCC(=O)Nc1cc(NCc2c(C)cc(F)cc2C)c2nc(C)c(C)n2c1.O=C(O)CC(O)(CC(=O)O)C(=O)O [Example 100, citrate]	< 50 nM
Cc1cccc(C)c1CNc1cc(NC(=O)CNC(=O)C(F)F)cn2c(C)c(C)nc12 [Example 56]	> 500 nM
Cc1cc(F)cc(C)c1CNc1cc(NC(=O)[C@H](C)N)cn2c(C)c(C)nc12 [Example 63, hydrochloride]	50 to 100 nM
Cc1cccc(C)c1CNc1cc(NC(=O)[C@@H]2CNCCN2)cn2c(C)c(C)nc12 [Example 94, hydrochloride]	< 50 nM
Cc1cccc(C)c1CNc1cc(NC(=O)N[C@@H]2CCc3ccccc32)cn2c(C)c(C)nc12 [Example 80, hydrochloride]	> 500 nM

// IC50 value for Cc1cccc(C)c1CNc1cc(NC(=O)N2CCNCC2)cn2c(C)c(C)nc12 [Example 103, hydrochloride] : 100 to 500 nM

Values compiled from patent EP4778924A1.
